Molecular target: ABL1 (64-515) (Homo sapiens (Human), UniProt P00519)
Sequence (P00519 64-515): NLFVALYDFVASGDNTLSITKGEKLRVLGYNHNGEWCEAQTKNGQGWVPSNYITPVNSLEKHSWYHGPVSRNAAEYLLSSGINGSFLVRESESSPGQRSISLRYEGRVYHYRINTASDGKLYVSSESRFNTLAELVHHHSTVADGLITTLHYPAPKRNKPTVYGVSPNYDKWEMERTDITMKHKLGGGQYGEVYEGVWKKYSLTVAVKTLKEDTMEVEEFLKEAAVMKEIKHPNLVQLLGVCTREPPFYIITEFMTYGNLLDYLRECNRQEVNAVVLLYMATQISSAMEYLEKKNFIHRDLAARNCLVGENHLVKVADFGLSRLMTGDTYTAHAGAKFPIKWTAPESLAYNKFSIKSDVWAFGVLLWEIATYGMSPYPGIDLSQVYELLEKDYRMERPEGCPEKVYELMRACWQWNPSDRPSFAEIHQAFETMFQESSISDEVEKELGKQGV
Experiment: Caliper ABL1 (64-515) microfluidic mobility shift kinase assay
Conditions: read-out: Caliper ABL1 (64-515) IC50
Metric: pIC50
Formally, pIC50 is defined as -log10 of the concentration c, with c in mol/L.

Solved entries:
Cc1cc(-c2cc(C(=O)Nc3ccc(OC(F)(F)Cl)cc3)ccc2N2C[C@H](N)[C@@H](O)C2)[nH]n1 | 9.10
O=C(Nc1ccc(OC(F)(F)Cl)cc1)c1cnc(N2CCC[C@@H](O)C2)c(-c2ccn[nH]2)c1 | 8.89
O=C(Nc1ccc(OC(F)(F)F)cc1)c1cnc(N2CC[C@@H](O)C2)c(-c2ccc[nH]2)c1 | 8.89
O=C(Nc1ccc(OC(F)(F)Cl)cc1)c1ccc(N2C[C@H](O)[C@@H](O)C2)c(-c2ccn[nH]2)c1 | 9.15
CO[C@H]1CN(c2ncc(C(=O)Nc3ccc(OC(F)(F)Cl)cc3)cc2-c2ccn[nH]2)C[C@@H]1N (relative stereo) | 9.15

Next item in the queue.
// lookup pIC50 | system=ABL1 (64-515) (Homo sapiens (Human), UniProt P00519) | key= "CN(CCO)c1ncc(C(=O)Nc2ccc(SC(F)(F)F)cc2)cc1-c1ccn[nH]1"
9.00

The measured values listed here are drawn from patent US9340537B2.
